Form field: CC50 at 3 days (one value per entry).
# method_description: Cell viability by CellTiter-Glo 2.0 (intracellular ATP content) in HepG2.117 cells
# Type: cell-based
# condition_description: human, CellTiter-Glo 2.0, 3 days incubation
Counter-ions that a name gives are not always drawn.

Solved cases below.
compound | reported_property | experimental_result
Cc1cc(C)n(-c2nc3c(c(=O)n2-c2ccc(N[C@H]4C[C@H](O)C4)nc2)C[C@@H](C)N(C(=O)c2ccc(Br)c(C(F)(F)F)c2)C3)n1 | CC50 at 3 days | > 500 nM
Cc1cc(C)n(-c2nc3c(c(=O)n2-c2ccc(N4CCNCC4)nc2)C[C@@H](C)N(C(=O)c2ccc(Br)c(C(F)(F)F)c2)C3)n1 [Compound 10, hydrochloride] | CC50 at 3 days | > 500 nM
CNC(=O)c1ccc(-n2c(-n3nc(C)cc3C)nc3c(c2=O)C[C@@H](C)N(C(=O)c2ccc(Br)c(C(F)(F)F)c2)C3)cn1 | CC50 at 3 days | > 500 nM

Ask: Quickly give me recorded CC50 at 3 days for Cc1cc(C)n(-c2nc3c(c(=O)n2-c2ccc(N4CC[C@@H](O)C4)nc2)C[C@@H](C)N(C(=O)c2ccc(Br)c(C(F)(F)F)c2)C3)n1
Reply: > 500 nM

Ask: Quickly give me recorded CC50 at 3 days for Cc1cc(C)n(-c2nc3c(c(=O)n2-c2cnc4c(c2)ncn4C)C[C@@H](C)N(C(=O)c2ccc(Br)c(C(F)(F)F)c2)C3)n1
Reply: > 500 nM

Ask: Quickly give me recorded CC50 at 3 days for Cc1cc(C)n(-c2nc3c(c(=O)n2-c2ccc(N4CCOCC4)nc2)C[C@@H](C)N(C(=O)c2ccc(Br)c(C(F)(F)F)c2)C3)n1
Reply: > 500 nM
